test: Lyophilisation Solubility Assay (LYSA); type: physicochemical; conditions: aqueous buffer, thermodynamic from solid; 0.05 M phosphate buffer, pH 6.5; * = detection limit
measurement_name: solubility thermodynamic (µg/mL)
Numbers only; they are read as µg/mL.

Recorded solubility thermodynamic, per entry:
1) CCNc1cc(F)cc2c1[nH]c1ncc(-c3cncc(C#N)c3)c(-n3cc(CN)c(C(F)(F)F)n3)c12 [Example 1.26] | 32.5
2) CCNc1cc(F)cc2c1[nH]c1ncc(-c3cnc(CN)nc3)c(-n3ccc(C(F)(F)F)n3)c12 [Example 1.46] | 23
3) CCNc1cc(F)cc2c1[nH]c1ncc(-c3cnc(C4(C(=O)O)CC4)nc3)c(-n3ccc(C(F)(F)F)n3)c12 [Example 2.01] | 67

Would you kindly look at the next entry?
Value lookup for solubility thermodynamic; key = CCNc1cc(F)cc2c1[nH]c1ncc(-c3cnc(OC)nc3)c(-n3nc(C#N)c4c3CNCC4)c12 [Example 1.39]
42

---

// endpoint MIC / system E. coli (ATCC 25922)
Numbers only; they are read as µg/mL.

Recorded MIC, per entry:
1) CCNc1cc(F)c(F)c2c1[nH]c1ncc(-c3cncc(C#N)c3)c(-n3ccc(C(F)(F)F)n3)c12 | 0.7
2) CCNc1cc(F)cc2c1[nH]c1ncc(-c3cnc([C@H](C)O)nc3)c(-n3ccc(C(F)(F)F)n3)c12 | 0.284
3) CCNc1cc(F)cc2c1[nH]c1ncc(-c3cnc(OC)nc3)c(-n3nc(C(F)(F)F)c4c3CNC4)c12 | 0.601
4) CNc1c(F)c(F)cc2c1[nH]c1ncc(-c3cncc(C#N)c3)c(-n3cc(CN)c(C(F)(F)F)n3)c12 | 0.359
5) CCNc1cc(F)cc2c1[nH]c1ncc(-c3cncc(C#N)c3)c(-n3cc(CN)c(C(F)(F)F)n3)c12 | 0.618

Hello, I am looking for reported MIC with E. coli (ATCC 25922) for CCNc1cc(F)cc2c1[nH]c1ncc(-c3cncc(C(N)=O)c3)c(-n3ccc(C(F)(F)F)n3)c12 . Could you help?
0.142

Hello, I am looking for reported MIC with E. coli (ATCC 25922) for CCNc1cc(F)cc2c1[nH]c1ncc(-c3cncc(C#N)c3)c(-n3cc(C(F)(F)F)cn3)c12 . Could you help?
0.679

Hello, I am looking for reported MIC with E. coli (ATCC 25922) for CCNc1cc(F)cc2c1[nH]c1ncc(-c3cncc(C(=O)NCCOC)c3)c(-n3ccc(C(F)(F)F)n3)c12 . Could you help?
0.734

Hello, I am looking for reported MIC with E. coli (ATCC 25922) for CCNc1cc(F)cc2c1[nH]c1ncc(-c3cnc(C(N)=O)nc3)c(-n3ccc(C(F)(F)F)n3)c12 . Could you help?
0.142

Hello, I am looking for reported MIC with E. coli (ATCC 25922) for CCNc1cc(F)cc2c1[nH]c1ncc(-c3cnc(C)nc3)c(-n3ccc(C(F)(F)F)n3)c12 . Could you help?
0.534

Hello, I am looking for reported MIC with E. coli (ATCC 25922) for CCNc1cc(F)cc2c1[nH]c1ncc(-c3cnc(OCC(C)(C)C(=O)O)nc3)c(-n3ccc(C(F)(F)F)n3)c12 . Could you help?
0.653

Hello, I am looking for reported MIC with E. coli (ATCC 25922) for CCNc1cc(F)cc2c1[nH]c1ncc(-c3cncnc3)c(-n3ccc(C(F)(F)F)n3)c12 . Could you help?
0.259
